Assay: in vivo
Conditions: male, Sprague-Dawley, rat, po, 30 mg/kg
readout-name: Cmax at 24 h

Name the reported Cmax at 24 h value associated with the molecule O=C1CCN(c2cc(C(=O)N3CCC(CC4CCN(c5ccc(-c6cnc7[nH]cc(-c8cnn(CC(F)(F)F)c8)c7n6)cn5)CC4)CC3)ccc2Cl)C(=O)N1
3560 ng/mL

----------
Experiment: in vivo
Details: female, Sprague-Dawley, rat, po, 100 mg/kg
readout-name: Cmax at 336 h (ng/mL)
Provide the reading as a plain figure in ng/mL.

Name the reported Cmax at 336 h value associated with the compound O=C1CCN(c2cc(C(=O)N3CCC(CC4CCN(c5ccc(-c6cnc7[nH]cc(-c8cnn(CC(F)(F)F)c8)c7n6)cn5)CC4)CC3)ccc2Cl)C(=O)N1
8590

----------
Assay: AUCinfinity in C57BL/6J mouse at 2 mg/kg, iv measured upto 24 hrs by LC-MS analysis
Type: ADME, organism-based
Settings: in vivo
readout-name: AUC(0-inf) (ng·h/mL)
Provide the reading as a plain figure in ng·h/mL.

Name the reported AUC(0-inf) value associated with the molecule O=C1CCN(c2cc(C(=O)N3CCC(CC4CCN(c5ccc(-c6cnc7[nH]cc(-c8cnn(CC(F)(F)F)c8)c7n6)cn5)CC4)CC3)ccc2Cl)C(=O)N1
5560

----------
Assay: in vivo
Conditions: Sprague-Dawley, rat, po, 1 mg/kg
readout-name: Cmax at 24 h (µg/mL)
Provide the reading as a plain figure in µg/mL.

Name the reported Cmax at 24 h value associated with the compound O=C1CCN(c2cc(C(=O)N3CCC(CC4CCN(c5ccc(-c6cnc7[nH]cc(-c8cnn(CC(F)(F)F)c8)c7n6)cn5)CC4)CC3)ccc2Cl)C(=O)N1
0.0987

----------
Molecular target: Protein cereblon/Mitogen-activated protein kinase kinase kinase kinase 1 (Homo sapiens, UniProt Q92918+Q96SW2)
Sequence (Q92918 whole entry): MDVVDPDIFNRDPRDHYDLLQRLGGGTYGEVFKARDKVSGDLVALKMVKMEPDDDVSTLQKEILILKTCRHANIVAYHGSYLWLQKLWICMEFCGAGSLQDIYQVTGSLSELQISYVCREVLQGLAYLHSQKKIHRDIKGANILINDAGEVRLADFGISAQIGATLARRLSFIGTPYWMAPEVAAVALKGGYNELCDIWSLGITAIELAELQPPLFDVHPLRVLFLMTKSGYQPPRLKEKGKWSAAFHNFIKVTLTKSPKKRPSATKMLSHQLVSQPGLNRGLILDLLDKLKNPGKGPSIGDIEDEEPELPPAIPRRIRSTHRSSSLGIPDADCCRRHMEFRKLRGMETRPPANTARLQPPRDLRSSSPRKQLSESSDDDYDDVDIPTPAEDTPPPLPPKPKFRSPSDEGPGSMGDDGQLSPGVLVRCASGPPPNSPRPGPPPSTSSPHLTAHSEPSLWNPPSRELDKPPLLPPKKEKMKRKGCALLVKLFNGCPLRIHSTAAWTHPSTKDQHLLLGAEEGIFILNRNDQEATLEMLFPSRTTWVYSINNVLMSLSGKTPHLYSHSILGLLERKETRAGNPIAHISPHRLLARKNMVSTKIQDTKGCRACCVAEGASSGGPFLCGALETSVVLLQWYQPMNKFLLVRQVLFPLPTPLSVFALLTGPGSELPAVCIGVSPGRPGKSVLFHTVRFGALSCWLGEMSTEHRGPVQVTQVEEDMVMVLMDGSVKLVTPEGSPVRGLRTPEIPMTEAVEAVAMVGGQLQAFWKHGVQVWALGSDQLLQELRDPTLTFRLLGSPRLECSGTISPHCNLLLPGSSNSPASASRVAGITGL
Sequence (Q96SW2 whole entry): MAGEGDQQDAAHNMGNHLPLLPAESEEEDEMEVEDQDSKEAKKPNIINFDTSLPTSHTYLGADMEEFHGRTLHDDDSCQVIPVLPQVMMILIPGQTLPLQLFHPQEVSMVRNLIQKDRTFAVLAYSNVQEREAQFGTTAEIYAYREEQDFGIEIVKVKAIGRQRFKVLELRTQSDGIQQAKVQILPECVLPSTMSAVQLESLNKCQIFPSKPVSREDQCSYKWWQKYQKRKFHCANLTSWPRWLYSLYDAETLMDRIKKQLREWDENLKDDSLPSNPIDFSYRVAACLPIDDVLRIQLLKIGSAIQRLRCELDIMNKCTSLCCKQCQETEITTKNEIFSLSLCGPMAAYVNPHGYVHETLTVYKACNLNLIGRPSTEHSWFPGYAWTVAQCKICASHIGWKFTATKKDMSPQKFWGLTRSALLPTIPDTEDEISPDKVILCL
Assay: PROTAC activity at CRBN/HPK1 in human Jurkat cells incubated for 24 hrs by Western blotting analysis
Format: cell-based
readout-name: DC50 (nM)
Provide the reading as a plain figure in nM.

Name the reported DC50 value associated with the compound CCN1CCC(n2cc(-c3c[nH]c4ncc(-c5ccc(N6CCC(OC7CCN(C(=O)c8ccc(Cl)c(N9CCC(=O)NC9=O)c8)CC7)CC6)c(F)c5)nc34)cn2)CC1
7.2

Please do the same for CCN1CCC(n2cc(-c3c[nH]c4ncc(-c5ccc(N6CCC(CC7CCN(C(=O)c8ccc(Cl)c(N9CCC(=O)NC9=O)c8)CC7)CC6)nc5)nc34)cn2)CC1 as well.
1.2

Please do the same for O=C1CCN(c2cc(C(=O)N3CCC(CC4CCN(c5ccc(-c6cnc7[nH]cc(-c8cnn(C9CC9)c8)c7n6)cn5)CC4)CC3)ccc2Cl)C(=O)N1 as well.
52.3

----------
Molecular target: Protein cereblon/Mitogen-activated protein kinase kinase kinase kinase 1 (Homo sapiens, UniProt Q92918+Q96SW2)
Experiment: PROTAC activity at CRBN/HPK1 in human Jurkat cells incubated for 24 hrs by Western blotting analysis
Type: cell-based
Provide the recorded DC50 for the entries that follow.
Provide the reading as a plain figure in nM.

Name the reported DC50 value associated with the compound CCN1CCC(n2cc(-c3c[nH]c4ncc(-c5ccc(N6CCC(CC7CCCN(C(=O)c8ccc(Cl)c(N9CCC(=O)NC9=O)c8)CC7)CC6)nc5)nc34)cn2)CC1 (stereo not given)
385

Please do the same for CCn1cc(-c2c[nH]c3ncc(-c4ccc(N5CCC(CC6CCN(C(=O)c7ccc(Cl)c(N8CCC(=O)NC8=O)c7)CC6)CC5)nc4)nc23)cn1 as well.
29.2

Please do the same for O=C1CCN(c2cc(C(=O)N3CCC(CC4CCN(c5ccc(-c6cnc7[nH]cc(-c8cnn(CCO)c8)c7n6)cn5)CC4)CC3)ccc2Cl)C(=O)N1 as well.
29

Please do the same for CN1CCC(n2cc(-c3c[nH]c4ncc(-c5ccc(N6CCC(CC7CCN(C(=O)c8ccc(Cl)c(N9CCC(=O)NC9=O)c8)CC7)CC6)nc5)nc34)cn2)CC1 as well.
21.4

Please do the same for Cn1cc(-c2c[nH]c3ncc(-c4ccc(N5CCC(CC6CCN(C(=O)c7ccc(Cl)c(N8CCC(=O)NC8=O)c7)CC6)CC5)nc4)nc23)cn1 as well.
9.3
